- system.tested: RORγ (Homo sapiens)
- Construct: expressed in transfected cells; host or cells: HEK 293 cells, transiently transfected
- Sequence (P51449 269-508 limits assumed): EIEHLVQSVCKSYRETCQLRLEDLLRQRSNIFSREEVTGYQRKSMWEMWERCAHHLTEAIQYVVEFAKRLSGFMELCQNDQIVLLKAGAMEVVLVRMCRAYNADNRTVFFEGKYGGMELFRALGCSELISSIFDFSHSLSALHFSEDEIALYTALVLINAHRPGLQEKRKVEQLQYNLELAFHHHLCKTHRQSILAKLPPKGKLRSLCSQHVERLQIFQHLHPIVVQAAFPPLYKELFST
- protocol.summary: Reporter Gene Assay (RGA): nuclear receptor transactivation assay, inhibition of RORγ transactivation of a luciferase reporter in transiently transfected HEK 293 cells
- Type: cell-based
- run.conditions: read-out: RGA IC50
Mark YES only for IC50 values smaller than 200 nM; exact matches and larger values are NO.

Please state whether IC50 is below 200 nM for Cc1ncnc(C2CC2)c1-c1ncc2nc(NCc3ccc(S(C)(=N)=O)cc3)c(=O)n([C@@H](C)C3CC3)c2n1 (stereo partly shown) [Example 160]
NO

Please state whether IC50 is below 200 nM for CCS(=O)(=O)c1ccc(CNc2nc3cnc(-c4c(OC)ncnc4C4CC4)nc3n([C@H]3CCC[C@H]3C#N)c2=O)nc1 [Example 108]
NO

Please state whether IC50 is below 200 nM for CCc1ncnc(C2CC2)c1-c1ncc2nc(NCc3ccc(S(=O)(=O)CC)cn3)c(=O)n(C3CCCC3)c2n1 [Example 3]
NO

Please state whether IC50 is below 200 nM for CC[C@@H](C)n1c(=O)c(NCc2ccc(S(C)(=O)=O)cc2)nc2cnc(-c3c(C)ncnc3C3CC3)nc21 [Example 189]
YES

Please state whether IC50 is below 200 nM for CC[C@H](C)n1c(=O)c(NCc2ccc(S(=O)(=O)CC)cn2)nc2cnc(-c3c(C)ncnc3C(F)(F)F)nc21 [Example 58]
NO

Please state whether IC50 is below 200 nM for COc1ncnc(C2CC2)c1-c1ncc2nc(NCc3ccc(S(C)(=O)=O)cn3)c(=O)n([C@@H](C)C(F)(F)F)c2n1 [Example 181]
YES

Please state whether IC50 is below 200 nM for CC[C@H](C)n1c(=O)c(NCc2ccc(S(=O)(=O)CC)cn2)nc2cnc(-c3c(C)ncnc3C3CC3)nc21 [Example 20]
NO

Please state whether IC50 is below 200 nM for CC[C@@H](C)n1c(=O)c(NCc2ccc(S(=O)(=O)CC)nc2)nc2cnc(-c3c(C4CC4)ncnc3C3CC3)nc21 [Example 224]
YES

Please state whether IC50 is below 200 nM for COc1ncnc(C2CC2)c1-c1ncc2nc(NCc3ccc(S(N)(=O)=O)cn3)c(=O)n(CC(C)C)c2n1 [Example 255]
NO

Please state whether IC50 is below 200 nM for CCS(=O)(=O)c1ccc(CNc2nc3cnc(-c4c(C)ncnc4C4CC4)nc3n([C@H](C)C(C)C)c2=O)nc1 [Example 67]
NO

Please state whether IC50 is below 200 nM for CCc1nc(N)nc(C2CC2)c1-c1ncc2nc(NCc3ccc(S(=O)(=O)C4CC4)cn3)c(=O)n([C@@H](C)C3CC3)c2n1 [Example 251]
YES

Please state whether IC50 is below 200 nM for CCS(=O)(=O)c1cnc(CNc2nc3cnc(-c4c(OC)ncnc4C4CC4)nc3n([C@@H](C)C(F)(F)F)c2=O)nc1 [Example 187]
NO

Please state whether IC50 is below 200 nM for CCS(=O)(=O)c1ccc(CNc2nc3cnc(-c4c(C)ncnc4C4CC4)nc3n(-c3ccccc3)c2=O)nc1 [Example 48]
NO

Please state whether IC50 is below 200 nM for CC[C@@H](C)n1c(=O)c(NCc2ccc(S(=O)(=O)CC)cn2)nc2cnc(-c3c(C)ncnc3C3CC3)nc21 [Example 84]
NO

Please state whether IC50 is below 200 nM for CCS(=O)(=O)N1CCC(CNc2nc3cnc(-c4c(C)ncnc4C4CC4)nc3n(C(C)C)c2=O)CC1 [Example 130]
NO

Please state whether IC50 is below 200 nM for COc1ncnc(C2CC2)c1-c1ncc2nc(NCc3ccc(S(C)(=O)=O)cn3)c(=O)n(C3CCC3)c2n1 [Example 241]
NO

Please state whether IC50 is below 200 nM for CCS(=O)(=O)c1ccc(CNc2nc3cnc(-c4c(C)ncnc4C4CC4)nc3n([C@@H](C)C(C)C)c2=O)nc1 [Example 66]
NO

Please state whether IC50 is below 200 nM for CC[C@@H](C)n1c(=O)c(NCc2ccc(S(N)(=O)=O)cn2)nc2cnc(-c3c(OC)ncnc3C3CC3)nc21 [Example 236]
YES
